# System: influenza virus (influenza A/kitakyusyu/159/93 (H3N2))
# Format: cell-based
# protocol-conditions: conc. of substance 0.5 mass %, 10 minutes at room temperature; control (PBS) 128
measurement-type: HA titer
Answers are plain numbers.

molecule	HA titer
[I][Sn]([I])([I])[I] [Example 8, Tin (IV) iodide]	2
[I-].[Tl+] [Example 9, Thallium (I) iodide]	64
[I][Bi]([I])[I] [Example 13, Bismuth (III) iodide]	64

Report HA titer for every entry below.
1. [I][Sn][I] [Example 7, Tin (II) iodide]
2. [I][Ge][I] [Example 6, Germanium (II) iodide]
3. [Cu][Br] [Example 23, Copper (I) bromide]
4. [I][Au] [Example 14, Gold (I) iodide]
5. [I][Sb]([I])[I] [Example 3, Antimony (III) iodide]

a:
2
2
32
64
32

###

Give measured HA titer for each item. Keep answers brief.
# System: influenza virus (influenza A/kitakyusyu/159/93 (H3N2))
# Format: cell-based
# protocol-conditions: conc. of substance 0.5 mass %, 10 minutes at room temperature; control (PBS) 128
Give bare numbers.

compound	recorded-result
[I-].[I-].[I-].[I-].[Pt+4] [Example 11, Platinum (IV) iodide]	64
[Cu].[O]=[Cu] [Example 27, Copper (I) oxide]	64
[I][Pd][I] [Example 12, Palladium (II) iodide]	64
N#C[S-].[Cu+] [Example 25, Copper (I) thiocyanate]	64
[Co+2].[I-].[I-] [Example 17, Cobalt (II) iodide]	8
[I][Ir]([I])([I])[I] [Example 4, Iridium (IV) iodide]	64
[I-].[I-].[Zn+2] [Example 19, Zinc (II) iodide]	4

Reported HA titer ( [Cu+].[I-] [Example 1, Copper (I) iodide] ) = 32
